- Tested On: MMP12 (Homo sapiens, UniProt P39900)
- Sequence (P39900 106-470): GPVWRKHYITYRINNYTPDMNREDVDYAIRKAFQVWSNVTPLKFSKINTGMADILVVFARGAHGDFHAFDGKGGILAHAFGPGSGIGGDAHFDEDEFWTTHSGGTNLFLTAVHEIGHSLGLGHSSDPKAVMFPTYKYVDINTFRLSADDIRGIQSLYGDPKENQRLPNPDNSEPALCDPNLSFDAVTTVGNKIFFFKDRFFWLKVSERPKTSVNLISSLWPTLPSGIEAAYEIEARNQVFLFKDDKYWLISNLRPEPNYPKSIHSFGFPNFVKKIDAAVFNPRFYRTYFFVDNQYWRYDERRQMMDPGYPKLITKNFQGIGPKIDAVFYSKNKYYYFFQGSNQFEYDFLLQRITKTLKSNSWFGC
- Measurement Protocol: MMP12 fluorogenic peptide biochemical assay
Experimental Readout: IC50 (nM)

1. Cc1cc([N+](=O)[O-])ccc1N1CCN(C(=O)[C@@H]2[C@@H](C(=O)NO)CC3(CC3)CN2C)CC1
2. CN1CC2(CC2)C[C@H](C(=O)NO)[C@H]1C(=O)N1CCN(c2ccc(C(F)(F)F)cn2)CC1
Given the listed records, identify the one among 1 and 2 with higher IC50. Your answer should be the label attached to the chosen record.
1
